- tested.system: NAD-dependent protein deacetylase sirtuin-2 (Homo sapiens)
- Sequence (Q8IXJ6 whole entry): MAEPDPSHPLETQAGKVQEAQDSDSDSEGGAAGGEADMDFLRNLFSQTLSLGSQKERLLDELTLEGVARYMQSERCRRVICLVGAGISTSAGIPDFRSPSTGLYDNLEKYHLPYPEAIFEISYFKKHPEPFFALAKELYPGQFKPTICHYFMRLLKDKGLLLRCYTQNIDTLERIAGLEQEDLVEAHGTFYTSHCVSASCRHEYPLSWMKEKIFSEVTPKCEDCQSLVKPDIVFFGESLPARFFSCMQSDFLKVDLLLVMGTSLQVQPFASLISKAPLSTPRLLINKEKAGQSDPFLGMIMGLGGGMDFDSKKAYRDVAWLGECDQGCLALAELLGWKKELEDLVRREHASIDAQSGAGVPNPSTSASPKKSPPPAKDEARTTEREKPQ
pIC50: −log10 of the molar value.
Lab note: anything with pIC50 at or over 5 counts as y; the rest go in n.

Determine whether measured pIC50 meets or exceeds 5 for `O=C1NC(=S)NC(=O)C1=Cc1cc2ccccc2[nH]1` n

And the next one, Cc1ccc(C(=O)Nc2ccc(S(=O)(=O)O)c3cc(S(=O)(=O)O)cc(S(=O)(=O)O)c23)cc1NC(=O)c1cccc(NC(=O)Nc2cccc(C(=O)Nc3cc(C(=O)Nc4ccc(S(=O)(=O)O)c5cc(S(=O)(=O)O)cc(S(=O)(=O)O)c45)ccc3C)c2)c1 [SURAMIN HEXASODIUM] ? y

And the next one, `CCOC(=O)CC(=O)NCCCC[C@H](NC(=O)OCc1ccccc1)C(=O)Nc1ccccc1` ? n

Reference source for all entries: ChEMBL document CHEMBL2169871
